molecular target: ZNF609 (UniProt O15014); assay: log2 fold change, soluble protein after heating vs DMSO (PISA); higher = thermal stabilisation; K562 cells, 10 uM, 30 min; active = over 0.2 and 3.5 SD of the protein, either way, in both replicates (recomputed)
Sequence (O15014 whole entry, looked up): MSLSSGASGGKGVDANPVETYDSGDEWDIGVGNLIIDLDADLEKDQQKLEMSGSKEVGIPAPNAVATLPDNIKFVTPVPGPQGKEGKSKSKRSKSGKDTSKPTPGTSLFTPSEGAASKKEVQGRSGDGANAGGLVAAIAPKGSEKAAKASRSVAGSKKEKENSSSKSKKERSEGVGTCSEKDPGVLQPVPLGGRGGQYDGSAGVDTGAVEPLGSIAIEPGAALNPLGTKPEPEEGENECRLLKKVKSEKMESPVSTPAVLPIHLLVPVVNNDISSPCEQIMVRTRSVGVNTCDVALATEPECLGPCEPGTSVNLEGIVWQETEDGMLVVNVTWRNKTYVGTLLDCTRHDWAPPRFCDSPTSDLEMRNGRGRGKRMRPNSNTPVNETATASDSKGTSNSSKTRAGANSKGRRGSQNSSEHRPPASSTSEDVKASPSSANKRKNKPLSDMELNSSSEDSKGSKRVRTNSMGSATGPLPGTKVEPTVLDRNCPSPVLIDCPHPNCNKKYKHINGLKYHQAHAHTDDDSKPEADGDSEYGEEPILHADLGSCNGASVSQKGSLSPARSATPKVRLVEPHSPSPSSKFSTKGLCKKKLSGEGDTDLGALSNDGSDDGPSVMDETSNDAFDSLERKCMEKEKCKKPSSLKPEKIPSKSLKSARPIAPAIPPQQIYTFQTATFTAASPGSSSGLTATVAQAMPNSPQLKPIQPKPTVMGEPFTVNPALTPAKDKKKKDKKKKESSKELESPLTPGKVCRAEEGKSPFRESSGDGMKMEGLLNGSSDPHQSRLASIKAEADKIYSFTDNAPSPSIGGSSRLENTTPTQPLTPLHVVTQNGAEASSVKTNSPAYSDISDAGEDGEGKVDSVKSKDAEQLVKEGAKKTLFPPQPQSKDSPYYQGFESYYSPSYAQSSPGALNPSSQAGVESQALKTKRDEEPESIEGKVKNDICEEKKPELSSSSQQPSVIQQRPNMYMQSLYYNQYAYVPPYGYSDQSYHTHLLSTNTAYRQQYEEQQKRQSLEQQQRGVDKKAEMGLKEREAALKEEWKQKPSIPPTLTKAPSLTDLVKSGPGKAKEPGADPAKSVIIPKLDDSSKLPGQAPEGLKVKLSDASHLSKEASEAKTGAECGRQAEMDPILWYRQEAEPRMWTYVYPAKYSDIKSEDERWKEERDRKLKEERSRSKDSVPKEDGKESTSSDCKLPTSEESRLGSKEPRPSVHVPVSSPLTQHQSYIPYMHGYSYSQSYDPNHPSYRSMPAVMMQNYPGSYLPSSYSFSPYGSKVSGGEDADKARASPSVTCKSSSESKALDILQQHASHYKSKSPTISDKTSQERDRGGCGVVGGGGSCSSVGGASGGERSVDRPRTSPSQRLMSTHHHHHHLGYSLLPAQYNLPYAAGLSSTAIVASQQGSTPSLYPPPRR
About 7,900 targets were measured; listed, in parts, are those with a hit and a random draw of the rest. About 0.6% of all pairs of compound and target were hits.
Documented log2 fold change across a set of molecules

sample-smiles | measurement-target | log2 fold change
CN1CCc2c(c3ccccc3n2Cc2ccc(C(=O)NO)cc2)C1 | ZNF609 (UniProt O15014) | -0.126
Cc1ccc(-n2nc(C(C)(C)C)cc2NC(=O)Nc2ccc(OCCN3CCOCC3)c3ccccc23)cc1 | ZNF609 (UniProt O15014) | 0.036
NCC(=O)Nc1ccc(-n2nc(C(F)(F)F)cc2-c2ccc3c(ccc4ccccc43)c2)cc1 | ZNF609 (UniProt O15014) | -0.076

----------
molecular target: ZC3HC1 (UniProt Q86WB0); experiment: log2 fold change, soluble protein after heating vs DMSO (PISA); higher = thermal stabilisation; K562 cells, 10 uM, 30 min; active = over 0.2 and 3.5 SD of the protein, either way, in both replicates (recomputed)
Sequence (Q86WB0 whole entry, looked up): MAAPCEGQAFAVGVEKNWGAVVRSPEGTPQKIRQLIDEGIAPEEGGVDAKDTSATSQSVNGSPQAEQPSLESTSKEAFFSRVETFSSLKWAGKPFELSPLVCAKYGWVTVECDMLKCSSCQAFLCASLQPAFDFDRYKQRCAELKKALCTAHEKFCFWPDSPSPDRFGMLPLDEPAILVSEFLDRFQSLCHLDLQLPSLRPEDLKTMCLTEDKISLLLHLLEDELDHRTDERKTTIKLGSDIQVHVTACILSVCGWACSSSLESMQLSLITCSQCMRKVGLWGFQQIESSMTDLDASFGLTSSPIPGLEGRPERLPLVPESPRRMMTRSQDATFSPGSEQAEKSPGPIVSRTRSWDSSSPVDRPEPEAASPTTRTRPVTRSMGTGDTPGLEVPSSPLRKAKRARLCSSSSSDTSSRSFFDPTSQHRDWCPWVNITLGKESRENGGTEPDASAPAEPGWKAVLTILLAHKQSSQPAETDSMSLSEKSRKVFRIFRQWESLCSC
Of roughly 7,900 targets only a part is listed; those with a hit were picked by preference. About 0.6% of all pairs of compound and target were hits.
// label = Yes if log2 fold change is not less than 0.01, otherwise No

molecule | label
O=C1NC(=NCc2cccs2)S/C1=C\c1ccc2ncccc2c1 | Yes
COc1cc2nc(-c3cc(F)ccc3O)nc(N[C@@H]3CNC[C@H]3C(C)(C)O)c2cc1OC | Yes
Cn1c2cc(S(C)=O)sc2c2cnn(Cc3cccc(N)c3)c(=O)c21 (stereo not drawn) | No
CCCCN(Cc1ccc(C(=O)NO)cc1)C(=O)Nc1ccccc1 | No
Cc1cn(-c2cc(NC(=O)c3ccc(C)c(Nc4nccc(-c5cccnc5)n4)c3)cc(C(F)(F)F)c2)cn1 | No
CON(C)C(=O)N1N=C(c2cc(F)ccc2F)S[C@@]1(CCCN)c1ccccc1 | No
CS(=O)(=O)c1ccc(-c2cnc(N)c(C(=O)Nc3ccccc3)n2)cc1 | Yes
Cc1ccc(-n2nc(C(C)(C)C)cc2NC(=O)Nc2ccc(OCCN3CCOCC3)c3ccccc23)cc1 | No
Cc1ccc(Sc2cncc3sc(C(N)=O)cc23)cc1 | Yes
Cc1cc(Nc2cc(CN3CCOCC3)c3nc(C)c(Cc4ccc(Cl)cc4F)n3n2)n[nH]1 | No
NCC(=O)Nc1ccc(-n2nc(C(F)(F)F)cc2-c2ccc3c(ccc4ccccc43)c2)cc1 | No
NC(=O)c1cnc(N[C@@H]2CCCC[C@@H]2N)nc1Nc1cccc(-n2nccn2)c1 | No
O=C(Nc1nc2ccccc2n1CCN1CCOCC1)c1cccc([N+](=O)[O-])c1 | No
CC[C@H](C)n1cc(C)c2c(C(=O)NCc3c(C)cc(C)[nH]c3=O)cc(-c3ccc(N4CCNCC4)nc3)cc21 | Yes
Nc1ccccc1NC(=O)c1ccc(CNC(=O)OCc2cccnc2)cc1 | Yes
CC(C)c1cnn2c(NCc3ccccc3)cc(NCCCCCCN)nc12 | No
Cc1cccc(-c2[nH]c(C(C)(C)C)nc2-c2ccc3nccnc3c2)n1 | Yes
Cn1cncc1[C@@](N)(c1ccc(Cl)cc1)c1ccc2c(c1)c(-c1cccc(Cl)c1)cc(=O)n2C | No

----------
molecular target: YY1 (UniProt P25490); test: log2 fold change, soluble protein after heating vs DMSO (PISA); higher = thermal stabilisation; K562 cells, 10 uM, 30 min; active = over 0.2 and 3.5 SD of the protein, either way, in both replicates (recomputed)
Sequence (P25490 whole entry, looked up): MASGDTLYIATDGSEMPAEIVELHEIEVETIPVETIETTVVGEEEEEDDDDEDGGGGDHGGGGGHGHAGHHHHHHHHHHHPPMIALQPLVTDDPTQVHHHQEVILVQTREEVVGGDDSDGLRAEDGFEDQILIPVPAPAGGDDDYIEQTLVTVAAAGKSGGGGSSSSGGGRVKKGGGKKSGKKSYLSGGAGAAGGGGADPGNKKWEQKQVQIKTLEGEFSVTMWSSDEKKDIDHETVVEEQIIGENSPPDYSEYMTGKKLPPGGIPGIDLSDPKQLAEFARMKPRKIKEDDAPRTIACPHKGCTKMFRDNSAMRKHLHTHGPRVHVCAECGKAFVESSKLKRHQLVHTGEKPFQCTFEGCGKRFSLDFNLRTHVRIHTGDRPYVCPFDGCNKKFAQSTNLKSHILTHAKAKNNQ
About 7,900 targets were measured; listed, in parts, are those with a hit and a random draw of the rest. About 0.6% of all pairs of compound and target were hits.

molecule | log2 fold change
CC1=C(C(=O)Nc2cc3cn[nH]c3cc2F)C(c2ccc(C(F)(F)F)cc2)CC(=O)N1 (stereo not drawn) | 0.059
CC(C)(O)CC(=O)NCCn1ccc2ncnc(Nc3ccc(Oc4cccc(C(F)(F)F)c4)c(Cl)c3)c21 | -0.026
c1cn2cc(-c3ccc4cn[nH]c4c3)nc(Nc3ccc(N4CCOCC4)cc3)c2n1 [entospletinib] | 0.022
CNC(=O)c1ccccc1Nc1nc(Nc2ccc(N3CCOCC3)cc2OC)ncc1Cl | -0.046
Cn1c2cc(S(C)=O)sc2c2cnn(Cc3cccc(N)c3)c(=O)c21 (stereo not drawn) | 0.045
NC(=O)c1cnc(N[C@@H]2CCCC[C@@H]2N)nc1Nc1cccc(-n2nccn2)c1 | -0.037
COc1cc2nc(-c3cc(F)ccc3O)nc(N[C@@H]3CNC[C@H]3C(C)(C)O)c2cc1OC | -0.268
Cc1ncc(-c2ccnc(Nc3ccc(S(C)(=O)=O)cc3)n2)n1C(C)C | -0.207

----------
target: ZYG11B (UniProt Q9C0D3); experiment: log2 fold change, soluble protein after heating vs DMSO (PISA); higher = thermal stabilisation; K562 cells, 10 uM, 30 min; active = over 0.2 and 3.5 SD of the protein, either way, in both replicates (recomputed)
Sequence (Q9C0D3 whole entry, looked up): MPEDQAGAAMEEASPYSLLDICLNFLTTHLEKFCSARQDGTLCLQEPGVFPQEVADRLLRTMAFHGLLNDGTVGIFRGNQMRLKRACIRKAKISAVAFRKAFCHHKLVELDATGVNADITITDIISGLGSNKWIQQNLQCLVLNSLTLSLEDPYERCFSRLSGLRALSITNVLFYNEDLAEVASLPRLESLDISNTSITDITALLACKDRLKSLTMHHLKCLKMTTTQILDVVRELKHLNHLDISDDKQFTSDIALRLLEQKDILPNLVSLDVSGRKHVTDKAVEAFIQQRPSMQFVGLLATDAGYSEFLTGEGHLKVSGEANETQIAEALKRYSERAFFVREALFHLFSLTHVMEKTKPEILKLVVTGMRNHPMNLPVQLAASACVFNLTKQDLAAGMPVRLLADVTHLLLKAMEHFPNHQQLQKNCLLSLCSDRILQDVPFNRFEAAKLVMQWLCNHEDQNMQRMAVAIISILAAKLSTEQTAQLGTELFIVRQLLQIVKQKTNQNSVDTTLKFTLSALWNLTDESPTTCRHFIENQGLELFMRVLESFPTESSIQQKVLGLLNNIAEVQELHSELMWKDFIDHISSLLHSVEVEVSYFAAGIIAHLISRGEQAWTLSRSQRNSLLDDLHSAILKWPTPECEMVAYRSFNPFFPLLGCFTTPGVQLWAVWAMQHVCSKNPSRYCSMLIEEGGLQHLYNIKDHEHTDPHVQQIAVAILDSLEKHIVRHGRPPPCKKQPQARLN
About 7,900 targets were measured; listed, in parts, are those with a hit and a random draw of the rest. About 0.6% of all pairs of compound and target were hits.

compound | log2 fold change
CN1CCC(CNc2ccc3ncc(-c4cccc(OC(F)(F)F)c4)n3n2)CC1 | -0.113
O=C1c2ccccc2-c2n[nH]c3cccc1c23 | -0.033
Cn1cc(-c2ccc3nnc(C(F)(F)c4ccc5ncccc5c4)n3n2)cn1 | 0
COc1ccc(Cn2ccc3ccc(C(=O)NO)cc32)cc1 | 0.052
CCN(CC)Cc1ccc2cc(COC(=O)Nc3ccc(C(=O)NO)cc3)ccc2c1 | -0.009
COc1cc2ncnc(Nc3ccc(F)c(Cl)c3)c2cc1OCCCN1CCOCC1 | 0.042
Cc1ccc2c(=O)c3ccccc3n(CCCN)c2c1C | 0.009
Cn1c2cc(S(C)=O)sc2c2cnn(Cc3cccc(N)c3)c(=O)c21 (stereo not given) | -0.053
FC(F)(F)c1ccc(/C=C/c2nc(COc3ccc(CCCCn4ccnn4)cc3)co2)cc1 | 0.01
CN(C)CC(=O)Nc1ccc2[nH]c(=O)c3ccccc3c2c1 | -0.003

----------
target: ZNF143 (UniProt P52747); assay: log2 fold change, soluble protein after heating vs DMSO (PISA); higher = thermal stabilisation; K562 cells, 10 uM, 30 min; active = over 0.2 and 3.5 SD of the protein, either way, in both replicates (recomputed)
Sequence (P52747 whole entry, looked up): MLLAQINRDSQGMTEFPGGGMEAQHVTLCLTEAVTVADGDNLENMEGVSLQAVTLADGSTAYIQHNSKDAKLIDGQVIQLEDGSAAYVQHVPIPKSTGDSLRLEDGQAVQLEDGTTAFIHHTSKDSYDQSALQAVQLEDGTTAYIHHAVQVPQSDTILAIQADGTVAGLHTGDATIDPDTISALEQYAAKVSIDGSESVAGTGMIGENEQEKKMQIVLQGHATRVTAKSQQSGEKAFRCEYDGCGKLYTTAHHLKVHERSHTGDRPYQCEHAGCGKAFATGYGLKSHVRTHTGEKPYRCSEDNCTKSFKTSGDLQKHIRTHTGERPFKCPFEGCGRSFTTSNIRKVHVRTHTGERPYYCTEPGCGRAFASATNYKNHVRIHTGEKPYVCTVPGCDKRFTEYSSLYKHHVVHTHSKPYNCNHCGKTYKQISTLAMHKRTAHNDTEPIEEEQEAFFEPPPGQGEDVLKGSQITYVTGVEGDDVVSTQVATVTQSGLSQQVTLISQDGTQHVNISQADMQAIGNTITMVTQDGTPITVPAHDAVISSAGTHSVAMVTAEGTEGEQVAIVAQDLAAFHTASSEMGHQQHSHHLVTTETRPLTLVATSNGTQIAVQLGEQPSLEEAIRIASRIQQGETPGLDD
Targets with a hit are over-represented here; the source holds about 7,900 in all. About 0.6% of all pairs of compound and target were hits.
recorded-endpoint: log2 fold change

sample-smiles | reported
C=CC(=O)N1CCC[C@@H](n2nc(-c3ccc(Oc4ccccc4)cc3)c3c(N)ncnc32)C1 | 0.01
C[C@H](Nc1ncnc2nc[nH]c12)c1cc2cccc(Cl)c2c(=O)n1-c1ccccc1 | -0.146
Cc1cn(-c2cc(NC(=O)c3ccc(C)c(Nc4nccc(-c5cccnc5)n4)c3)cc(C(F)(F)F)c2)cn1 | -0.105
Cc1cc(SCc2sc(-c3ccc(C(F)(F)F)cc3)nc2C)ccc1OCC(=O)O | 0.028
Fc1ccc(Cl)cc1-c1nc(Nc2ccncc2)c2nccnc2n1 | -0.058
NC(=O)Nc1cc(-c2cccc(F)c2)sc1C(=O)N[C@H]1CCCNC1 | 0.07

----------
target: ZNF143 (UniProt P52747); assay: log2 fold change, soluble protein after heating vs DMSO (PISA); higher = thermal stabilisation; K562 cells, 10 uM, 30 min; active = over 0.2 and 3.5 SD of the protein, either way, in both replicates (recomputed)
Targets with a hit are over-represented here; the source holds about 7,900 in all. About 0.6% of all pairs of compound and target were hits.

compound | measurement-target | log2 fold change
CC[C@@H]1C(=O)N(C)c2cnc(Nc3ccc(C(=O)N[C@H]4CC[C@H](N5CCN(CC6CC6)CC5)CC4)cc3OC)nc2N1C(C)C | ZNF143 (UniProt P52747) | -0.289
Cc1ccc(NC(=O)c2ccc(CN3CC[C@H](N(C)C)C3)c(C(F)(F)F)c2)cc1Nc1nccc(-c2cncnc2)n1 | ZNF143 (UniProt P52747) | -0.089
CC(C)C[C@@H](C=O)NC(=O)[C@H](CC(C)C)NC(=O)[C@H](CC(C)C)NC(=O)OCc1ccccc1 | ZNF143 (UniProt P52747) | -0.119
Cc1ccc(C(=O)N(CCCN)[C@@H](c2nc3cc(Cl)ccc3c(=O)n2Cc2ccccc2)C(C)C)cc1 | ZNF143 (UniProt P52747) | -0.038
CN1CC[C@H](c2c(O)cc(O)c3c(=O)cc(-c4ccccc4Cl)oc23)[C@H](O)C1 | ZNF143 (UniProt P52747) | -0.125
CC1=C(C(=O)Nc2cc3cn[nH]c3cc2F)C(c2ccc(C(F)(F)F)cc2)CC(=O)N1 (configuration not stated) | ZNF143 (UniProt P52747) | 0.033
CCCCN(Cc1ccc(C(=O)NO)cc1)C(=O)Nc1ccccc1 | ZNF143 (UniProt P52747) | 0.19
COc1cc(C(=O)O)ccc1NC(=O)[C@@H]1N[C@@H](CC(C)(C)C)[C@](C#N)(c2ccc(Cl)cc2F)[C@H]1c1cccc(Cl)c1F | ZNF143 (UniProt P52747) | 0.07
CCCS(=O)(=O)Nc1ccc(F)c(C(=O)c2c[nH]c3ncc(-c4ccc(Cl)cc4)cc23)c1F | ZNF143 (UniProt P52747) | 0.029
Cc1cc(Nc2cc(N3CCN(C)CC3)nc(Sc3ccc(NC(=O)C4CC4)cc3)n2)n[nH]1 | ZNF143 (UniProt P52747) | 0.057
CCN(CC)Cc1ccc2cc(COC(=O)Nc3ccc(C(=O)NO)cc3)ccc2c1 | ZNF143 (UniProt P52747) | -0.022
Cc1ccc2c(=O)c3ccccc3n(CCCN)c2c1C | ZNF143 (UniProt P52747) | -0.043
